Measured EC50 of individual entries
Target or system: human STING protein in THP1-Blue ISG cells (Homo sapiens, UniProt Q86WV6, G230A/H232R/R293Q/R71H)
Sequence (Q86WV6 whole entry R71H/G230A/H232R/R293Q): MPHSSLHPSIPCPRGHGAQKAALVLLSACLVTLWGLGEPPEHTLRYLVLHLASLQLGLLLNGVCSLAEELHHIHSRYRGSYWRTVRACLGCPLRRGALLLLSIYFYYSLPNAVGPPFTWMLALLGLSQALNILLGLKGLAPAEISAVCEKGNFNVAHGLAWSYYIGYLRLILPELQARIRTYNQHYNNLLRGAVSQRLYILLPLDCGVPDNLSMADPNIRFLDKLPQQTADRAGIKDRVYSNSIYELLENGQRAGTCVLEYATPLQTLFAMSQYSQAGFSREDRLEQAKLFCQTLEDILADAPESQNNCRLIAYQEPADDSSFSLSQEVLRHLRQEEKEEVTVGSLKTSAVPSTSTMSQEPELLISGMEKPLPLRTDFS
Method notes: In vitro cytokine induction, THP1-Blue ISG IRF-inducible SEAP reporter assay
Experimental conditions: 24 hours incubation, OD at 620 nm
Where a name gives a salt, the structure may show the parent alone.
Write the number in nM without appending the unit.

Which value of EC50 has been reported for O=c1[nH]ncc2c1ncn2[C@@H]1O[C@@H]2COP(=O)(S)O[C@H]3[C@@H](O)[C@H](n4cnc5cncnc54)O[C@@H]3COP(=O)(S)O[C@@H]1[C@@H]2O (single isomer, unassigned) [Example 4.1, Sodium Salt] in the records? 190

Which value of EC50 has been reported for Nc1ncnc2c1ncn2[C@@H]1O[C@]23CO[C@@H]1[C@@H]2OP(=O)(S)OC[C@H]1O[C@@H](n2cnc4c(=O)[nH]ncc42)[C@H](OP(=O)(S)OC3)[C@@H]1O (single isomer, unassigned) [Example 3.1, Sodium Salt] in the records? 170

Which value of EC50 has been reported for O=c1[nH]ncc2c1ncn2[C@@H]1O[C@@H]2COP(=O)(S)O[C@H]3[C@@H](O)[C@H](n4cnc5cncnc54)O[C@@H]3COP(=O)(S)O[C@@H]1[C@@H]2O (single isomer, unassigned) [Example 4.2, Sodium Salt] in the records? 6200

Sourced from patent US10537590B2
